Assay: Genotoxicity in Salmonella typhimurium TA1535 harboring pSK1002 assessed as umu gene induction at 0.5 mg/ml in absence of Sprague-Dawley rat liver S9 fraction after by SOS/umu assay relative to control
Assay type: toxicity, organism-based
Settings: salmonella enterica subsp. enterica serovar typhimurium, read-out: FC
Rule: fold induction at 0.5 mg/ml below 0.6 gives fulfilled, anything at or above gives not fulfilled.

Compound | Class assignment
OC(CCN1CCN(c2ccccc2C(F)(F)F)CC1)c1ccc(F)cc1 (configuration not stated) | fulfilled
OC(CCN1CCN(c2ccccc2C(F)(F)F)CC1)c1ccc(F)c2ccccc12 (stereo in doubt; 55) | not fulfilled
OC(CCN1CC=C(c2ccc(F)cc2)CC1)c1ccc2c(c1)OCO2 (configuration not stated) | not fulfilled
N#Cc1ccc(C(O)CCN2CC=C(c3ccc(F)cc3)CC2)cc1 (configuration not stated) | not fulfilled
COc1ccccc1C1=CCN(CCC(O)c2ccc(F)cc2)CC1 (configuration not stated) | not fulfilled

Does the reported fold induction at 0.5 mg/ml of the following compound sit strictly below 0.6? Nc1ccc(N2CCC(NCCC(O)c3ccc(F)c4ccccc34)CC2)c(C(F)(F)F)c1 (configuration not stated)
fulfilled
